# Species on record: Mus musculus
# assayInfo: Compound was evaluated for anticonvulsant activity against audiogenic seizures in DBA/2 mice( clonic phase)
# Format: functional
Quick rule for you: ED50 under 10 mg/kg gets true, anything else gets false.

# input Consider `Nc1cccc(C2=NNC(=O)Cc3cc4c(cc32)OCO4)c1` . Does its ED50 lie strictly below 10 mg/kg?
# output true

# input Consider `O=C1Cc2cc3c(cc2C(c2ccccc2)=NN1)OCO3` . Does its ED50 lie strictly below 10 mg/kg?
# output false

# input Consider `COc1ccc(C2=NNC(=O)Cc3cc4c(cc32)OCO4)cc1` . Does its ED50 lie strictly below 10 mg/kg?
# output false

# input Consider `O=C1Cc2cc3c(cc2C(c2ccc(O)cc2)=NN1)OCO3` . Does its ED50 lie strictly below 10 mg/kg?
# output false

Would you kindly look at the next entry?
# input Consider `Nc1ccc(C2=NNC(=O)Cc3cc4c(cc32)OCO4)cc1` . Does its ED50 lie strictly below 10 mg/kg?
# output true
